Assay: Spontaneous locomotor activity test in mice
Details: mouse, in vivo; single oral dose, male ICR mice; read-out: ED50, inhibition of spontaneous locomotor activity
Attribute Measured: ED50 at 60 min

Which ED50 at 60 min is listed for `O=C1CCc2cc(OCCCN3CCC(c4noc5cc(F)ccc45)CC3)cc3c2N1CC3` ? ~0.49 mg/kg
